system: SU-DHL-2; assay: 72 h MTT proliferation assay on lymphoma cell lines (SU-DHL-2); type: cell-based; conditions: SU-DHL-2 (ABC-DLBCL), 72h exposure time, read-out: ABC-DLBC cell lines IC50, SU-DHL-2
experimental readout: IC50 (µM)
Numeric answer only, unit µM assumed.

IC50 in this record for O=C1N(Cc2cn(Cc3ccccc3)nn2)c2ccccc2C1(O)c1ccc2ccccc2c1 [(S) -2] : 19

---

Exercise: for every item that follows, state its recorded pIC50.
Test system: SU-DHL-2
Experiment: 72 h MTT proliferation assay on lymphoma cell lines (SU-DHL-2)
Format: cell-based
Conditions: Homo sapiens, SU-DHL-2 (ABC-DLBCL), 72h exposure time, read-out: ABC-DLBC cell lines IC50, SU-DHL-2
Protocol: A set of ten compounds was tested against four lymphoma cell lines belonging to Germinal Center B-cell-like Diffuse Large B-Cell lymphoma, GCB-DLBCL and Activated B-Cell-like Diffuse Large B-Cell lymphoma, ABC-DLBCL (Table 3). […] Cells were seeded in 96-well plates (non-tissue culture treated) at a density of 10,000 cells for all cell lines. […] Wells containing medium only were included on each plate and served as blanks for absorbance readings. […]
Please treat pIC50 as minus the base-10 logarithm of the molar concentration.

pIC50 in this record for CC(C)[C@H]1CC[C@H](C)C[C@H]1n1cc(CN2C(=O)C(=O)c3ccccc32)nn1 : 5.30

pIC50 in this record for O=C1C(=O)N(Cc2cn(Cc3ccccc3)nn2)c2ccccc21 : 4.82

---

tested on: DOHH-2; experiment: 72 h MTT proliferation assay on lymphoma cell lines (DOHH-2); format: cell-based; conditions: DOHH-2 (GCB-DLBCL), 72h exposure time, read-out: GCB-DLBC cell lines IC50, DOHH-2
experimental readout: IC50

O=C1N(Cc2cn(Cc3ccccc3)nn2)c2ccccc2C1(O)c1ccc(F)cc1 [(S) -3] tested on DOHH-2 gave IC50: > 20 µM

O=C1N(Cc2cn(Cc3ccccc3)nn2)c2ccccc2C1(O)c1ccc2ccccc2c1 [(S) -2] tested on DOHH-2 gave IC50: > 20 µM

---

system: SW480 colon adenocarcinoma cells; assay: 24 h MTT cytotoxicity assay, SW480 cell line; type: cell-based; settings: Homo sapiens, 24h exposure time
Exercise: for every item that follows, state its recorded pIC50.
Please treat pIC50 as minus the base-10 logarithm of the molar concentration.

pIC50 in this record for O=C1C(=O)N(Cc2cn(Cc3ccccc3)nn2)c2ccccc21 : 4.86

pIC50 in this record for CC(C)[C@H]1CC[C@H](C)C[C@H]1n1cc(CN2C(=O)C(=O)c3ccccc32)nn1 : 4.07
